Target: T1, 4H1710-bA
T1 chain: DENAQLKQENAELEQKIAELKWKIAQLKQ
Experiment: two-hybrid library CCNG1;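 also: natural log of median RNA to DNA barcode read ratio; higher means stronger binding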
readout kind: interaction score

binder: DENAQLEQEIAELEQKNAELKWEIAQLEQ [4H1081-bA]
readout kind: interaction score
reading: -1.02

binder: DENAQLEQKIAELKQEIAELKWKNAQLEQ [4H1359-bA]
readout kind: interaction score
reading: -0.54

binder: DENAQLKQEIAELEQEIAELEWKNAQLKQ [4H1544-bA]
readout kind: interaction score
reading: 2.06

binder: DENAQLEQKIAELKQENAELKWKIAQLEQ [4H1373-bA]
readout kind: interaction score
reading: -0.946

binder: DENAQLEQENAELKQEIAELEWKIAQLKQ [4H1222-bA]
readout kind: interaction score
reading: 2.36

binder: DENAQLEQKIAELEQKNAELKWEIAQLKQ [4H1338-bA]
readout kind: interaction score
reading: -1.12

binder: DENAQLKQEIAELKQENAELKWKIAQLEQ [4H1629-bA]
readout kind: interaction score
reading: -0.992

binder: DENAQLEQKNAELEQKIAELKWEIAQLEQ [4H1449-bA]
readout kind: interaction score
reading: 0.786

binder: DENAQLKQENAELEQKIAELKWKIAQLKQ [4H1710-bA]
readout kind: interaction score
reading: 0.102

binder: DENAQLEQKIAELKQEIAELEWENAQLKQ [4H1348-bA]
readout kind: interaction score
reading: 0.798

binder: DENAQLEQKIAELKQKNAELEWEIAQLEQ [4H1393-bA]
readout kind: interaction score
reading: -1.72
